Tested on: Human immunodeficiency virus 1
protocol details: Antiviral activity against HIV1 infected in human P4R5 cells assessed as reduction in viral infection preincubated with cells for 24 hrs followed by viral infection measured after 48 hrs by fluorescence based MAGI assay
Assay type: functional, organism-based
Measured pEC50 accompanies every entry in the list below.
# pEC50: negative log10 of molar concentration; output just the value

Worked set:
{"smiles notation": "O=c1cc(Cc2ccc(-c3ccccc3)cc2)[nH]c(=O)n1O", "pEC50": 5.00}
{"smiles notation": "O=c1cc(Cc2ccc(-c3ccc(C(F)(F)F)cc3)cc2)[nH]c(=O)n1O", "pEC50": 4.80}

Field request: pEC50 | item: O=c1cc(Cc2ccc(-c3ccc(Cl)c(F)c3)cc2)[nH]c(=O)n1O
4.82

---

study target: UniProt Q72547
protocol details: Inhibition of recombinant HIV1 reverse transcriptase RNase H expressed in Escherichia coli JM109 using RNA/DNA duplex substrate HTS1 as substrate
We label by threshold. Values of IC50 strictly beneath 0.9 µM are TRUE. Values of 0.9 µM and up are FALSE.

{"smiles notation": "CC(C)c1c(Cc2ccccc2)n(CCc2ccc(F)cc2)c(=O)n(O)c1=O", "assigned category": "FALSE"}
{"smiles notation": "CCOCn1c(Cc2ccc(-c3ccccc3)cc2)cc(=O)n(O)c1=O", "assigned category": "FALSE"}
{"smiles notation": "CCOCn1c(Cc2ccc(F)cc2)c(C(C)C)c(=O)n(O)c1=O", "assigned category": "FALSE"}

# TODO verify IC50 < 0.9 µM strictly for this molecule: CC(C)c1c(Cc2ccc(F)cc2)n(COCc2ccc(F)cc2)c(=O)n(O)c1=O
FALSE

Identify whether the molecule CC(C)c1c(Cc2ccccc2)n(COCCCCc2ccc(F)cc2)c(=O)n(O)c1=O records IC50 below 0.9 µM.
FALSE

Please state whether IC50 is below 0.9 µM for CCOCn1c(Cc2ccc(-c3ccccc3)cc2)c(C)c(=O)n(O)c1=O
FALSE

Please determine if O=c1cc(Cc2cccc(-c3ccccc3)c2)[nH]c(=O)n1O is below 0.9 µM in terms of IC50.
TRUE

Say whether its IC50 is strictly beneath 0.9 µM. Entry: CCOCn1c(Cc2ccccc2)c(C(C)C)c(=O)n(O)c1=O
FALSE

Input Cc1cc(-c2ccc(Cc3cc(=O)n(O)c(=O)[nH]3)cc2)ccc1F ; condition: IC50 strictly below 0.9 µM. Does it hold?
TRUE

Strictly below 0.9 µM: is that where IC50 of O=c1cc(Cc2ccc(-c3cccc(Cl)c3)cc2)[nH]c(=O)n1O sits?
TRUE

Threshold test, IC50 < 0.9 µM: O=c1cc(Cc2ccc(-c3cc(Cl)cc(C(F)(F)F)c3)cc2)[nH]c(=O)n1O
TRUE

---

Tested on: Human immunodeficiency virus 1
protocol details: Antiviral activity against HIV1 infected in human P4R5 cells assessed as reduction in viral infection preincubated with cells for 24 hrs followed by viral infection measured after 48 hrs by fluorescence based MAGI assay
Format: functional, organism-based
readout: EC50 (µM)
Supply the numeric figure in µM, leaving out any unit text.

Guide cases for EC50, answers given:
{"smiles notation": "COc1ccc(-c2ccc(Cc3cc(=O)n(O)c(=O)[nH]3)cc2)cc1F", "EC50 [µM]": 11}
{"smiles notation": "O=c1cc(Cc2cccc(-c3ccc(Cl)cc3)c2)[nH]c(=O)n1O", "EC50 [µM]": 7.6}

Next compound, EC50 to be filled in.
Recorded EC50 for O=c1cc(Cc2cccc(-c3cccc(Cl)c3)c2)[nH]c(=O)n1O , please?
11

---

Test system: Human immunodeficiency virus 1
protocol details: Antiviral activity against HIV1 infected in human P4R5 cells assessed as reduction in viral infection preincubated with cells for 24 hrs followed by viral infection measured after 48 hrs by fluorescence based MAGI assay
Assay type: functional, organism-based
readout: pEC50
Reminder that pEC50 means the negative base-10 logarithm of the concentration expressed in mol/L.

The cases that follow already have their pEC50 on record.
{"smiles notation": "O=c1cc(Cc2ccc(-c3ccc(F)cc3F)cc2)[nH]c(=O)n1O", "study target": "Human immunodeficiency virus 1", "pEC50": 5.25}
{"smiles notation": "Cc1cc(-c2cccc(Cc3cc(=O)n(O)c(=O)[nH]3)c2)ccc1F", "study target": "Human immunodeficiency virus 1", "pEC50": 4.92}
{"smiles notation": "O=c1cc(Cc2cccc(-c3cc(Cl)cc(C(F)(F)F)c3)c2)[nH]c(=O)n1O", "study target": "Human immunodeficiency virus 1", "pEC50": 4.70}
{"smiles notation": "O=c1cc(Cc2ccc(-c3cccc(F)c3)cc2)[nH]c(=O)n1O", "study target": "Human immunodeficiency virus 1", "pEC50": 4.92}
{"smiles notation": "O=c1cc(Cc2ccc(-c3ccc(Cl)cc3Cl)cc2)[nH]c(=O)n1O", "study target": "Human immunodeficiency virus 1", "pEC50": 4.89}
{"smiles notation": "O=c1cc(Cc2cccc(-c3ccccc3)c2)[nH]c(=O)n1O", "study target": "Human immunodeficiency virus 1", "pEC50": 5.02}
{"smiles notation": "O=c1cc(Cc2cccc(-c3cccc(F)c3)c2)[nH]c(=O)n1O", "study target": "Human immunodeficiency virus 1", "pEC50": 5.00}

What value of pEC50 has been recorded for this entry: COc1ccc(-c2cccc(Cc3cc(=O)n(O)c(=O)[nH]3)c2)cc1F
4.92

---

study target: Human immunodeficiency virus type 1 reverse transcriptase (Human immunodeficiency virus 1, UniProt Q72547)
protocol details: Inhibition of recombinant HIV1 reverse transcriptase RNase H expressed in Escherichia coli JM109 using RNA/DNA duplex substrate HTS1 as substrate
readout: IC50 (nM)
Just the number please, in nM, no unit attached.

Quick one: IC50 for CCOCn1c(Cc2ccc(-c3ccc(C(F)(F)F)cc3)cc2)cc(=O)n(O)c1=O ?
2100

Need IC50, item CC(C)c1c(Cc2ccccc2)n(COCc2ccc(F)cc2)c(=O)n(C)c1=O
7000

IC50 for O=c1cc(Cc2ccc(-c3ccc(Cl)cc3Cl)cc2)[nH]c(=O)n1O ?
9.2

Please report the recorded IC50 for CC(C)c1c(Cc2ccccc2)n(COCCc2ccc(F)cc2)c(=O)n(O)c1=O .
2800

Consider the compound CC(C)c1c(Cc2ccccc2)n(CCCCc2ccc(F)cc2)c(=O)n(O)c1=O and give its measured IC50.
900

---

protocol details: Cytotoxicity against human P4R5 cells assessed as reduction in cell viability after 72 hrs by XTT assay
Type: cell-based
# label = rule met if CC50 < 60 µM else rule not met

{"smiles notation": "O=c1cc(Cc2ccc(-c3ccc(C(F)(F)F)cc3)cc2)[nH]c(=O)n1O", "assigned category": "rule not met"}

Problem: For the compound Cc1cc(-c2ccc(Cc3cc(=O)n(O)c(=O)[nH]3)cc2)ccc1F , is CC50 under 60 µM?
rule not met

Please check: CC50 for O=c1cc(Cc2ccc(-c3cccc(C(F)(F)F)c3)cc2)[nH]c(=O)n1O , strictly under 60 µM or not?
rule not met

---

# EC50 listing for each entry below
Test system: Human immunodeficiency virus 1
protocol details: Antiviral activity against HIV1 infected in human P4R5 cells assessed as reduction in viral infection preincubated with cells for 24 hrs followed by viral infection measured after 48 hrs by fluorescence based MAGI assay
Type: functional, organism-based

Worked cases, EC50 given:
{"smiles notation": "Cc1cc(-c2ccc(Cc3cc(=O)n(O)c(=O)[nH]3)cc2)ccc1F", "readout": "EC50", "result": "> 20 µM"}
{"smiles notation": "O=c1cc(Cc2ccc(-c3ccc(C(F)(F)F)cc3C(F)(F)F)cc2)[nH]c(=O)n1O", "readout": "EC50", "result": "> 20 µM"}

Next molecule, EC50 to be filled in.
Using the record for O=c1cc(Cc2cccc(Br)c2)[nH]c(=O)n1O , report its EC50.
> 20 µM

---

IC50 reference
study target: Human immunodeficiency virus type 1 reverse transcriptase (Human immunodeficiency virus 1)
protocol details: Inhibition of recombinant HIV1 reverse transcriptase RNase H expressed in Escherichia coli JM109 using RNA/DNA duplex substrate HTS1 as substrate
# unit: nM | format: bare number

Study these solved cases before continuing.
{"smiles notation": "CC(C)c1c(Cc2ccccc2)n(COCc2cccc(Cl)c2F)c(=O)n(O)c1=O", "study target": "Human immunodeficiency virus type 1 reverse transcriptase (Human immunodeficiency virus 1)", "IC50, nM": 900}
{"smiles notation": "COc1ccc(-c2cccc(Cc3cc(=O)n(O)c(=O)[nH]3)c2)cc1F", "study target": "Human immunodeficiency virus type 1 reverse transcriptase (Human immunodeficiency virus 1)", "IC50, nM": 7.7}
{"smiles notation": "O=c1cc(Cc2ccc(-c3cccc(C(F)(F)F)c3)cc2)[nH]c(=O)n1O", "study target": "Human immunodeficiency virus type 1 reverse transcriptase (Human immunodeficiency virus 1)", "IC50, nM": 25}
{"smiles notation": "CC(C)c1c(Cc2ccccc2)n(CCCc2ccc(F)cc2)c(=O)n(O)c1=O", "study target": "Human immunodeficiency virus type 1 reverse transcriptase (Human immunodeficiency virus 1)", "IC50, nM": 3800}
{"smiles notation": "CC(C)c1c(Cc2ccccc2)n(COCc2ccc(F)cc2)c(=O)n(O)c1=O", "study target": "Human immunodeficiency virus type 1 reverse transcriptase (Human immunodeficiency virus 1)", "IC50, nM": 2100}

Using the record for O=c1cc(Cc2cccc(-c3cccc(F)c3)c2)[nH]c(=O)n1O , report its IC50.
18

Requested read-out: IC50. Entry: CC(C)c1c(Cc2ccc(F)cc2)n(Cc2ccccc2)c(=O)n(O)c1=O
10000

Please look up its IC50: CC(C)c1c(Cc2ccccc2)n(COCc2ccc(F)cc2F)c(=O)n(O)c1=O
1800

Field request: IC50 | item: CCOCn1c(Cc2ccc(-c3cc(OC)cc(OC)c3)cc2)c(C)c(=O)n(O)c1=O
6700

Reported IC50, compound O=c1cc(Cc2ccc(-c3ccc(C(F)(F)F)cc3C(F)(F)F)cc2)[nH]c(=O)n1O : ____
85

Values were extracted from ChEMBL document CHEMBL4270571.
